Attribute: koff
Test target: T1, human TREM2-Fc (human, UniProt Q9NZC2 19-174)
T1 construct: also called hTREM2; not shown: Fc part (captured by anti-human IgG1 Fc or protein A)
T1 sequence: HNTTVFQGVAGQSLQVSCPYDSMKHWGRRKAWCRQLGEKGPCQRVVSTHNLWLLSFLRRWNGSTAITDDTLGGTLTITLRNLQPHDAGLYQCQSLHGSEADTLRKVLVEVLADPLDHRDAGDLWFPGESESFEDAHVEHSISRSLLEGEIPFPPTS
Assay info: SPR (Biacore T200), 37 C; TREM2-Fc on protein A chip, soluble Fab
Record the value in s⁻¹, omitting the unit from your answer.

Reference set (3 entries):
Para.09 Fab with the 3.27H7 light chain (Fab, V domains shown, Fab fragment; also called Para.09 (3.27H7); Para.09-L27H7) VH: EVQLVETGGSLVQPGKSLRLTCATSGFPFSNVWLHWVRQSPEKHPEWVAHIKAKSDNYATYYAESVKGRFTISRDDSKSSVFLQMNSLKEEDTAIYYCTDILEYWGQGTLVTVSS VL: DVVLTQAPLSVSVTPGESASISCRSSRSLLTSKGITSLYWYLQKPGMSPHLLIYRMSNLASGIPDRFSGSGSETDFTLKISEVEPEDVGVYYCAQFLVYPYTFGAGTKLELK | 3.5e-05
hPara.09.v2 Fab (Fab, V domains shown, also called Para.09-H5/3.27H7-L6) VH: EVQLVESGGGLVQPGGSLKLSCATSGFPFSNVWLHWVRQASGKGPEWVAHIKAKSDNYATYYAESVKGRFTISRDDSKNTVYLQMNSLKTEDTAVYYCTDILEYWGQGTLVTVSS VL: DVVMTQSPLSLPVTPGEPASISCRSSRSLLTSKGITSLYWYLQKPGQSPQLLIYRMSNLASGIPDRFSGSGSGTDFTLKISRVEAEDVGVYYCAQFLVYPYTFGQGTKVEIK | 6.1e-05
3.10C2 Fab (Fab, V domains shown, also called 3.10C2 (3.10C2); Rat3.10C2) VH: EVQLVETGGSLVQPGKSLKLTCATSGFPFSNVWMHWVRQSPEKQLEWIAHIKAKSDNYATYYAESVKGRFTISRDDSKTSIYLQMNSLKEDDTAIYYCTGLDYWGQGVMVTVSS VL: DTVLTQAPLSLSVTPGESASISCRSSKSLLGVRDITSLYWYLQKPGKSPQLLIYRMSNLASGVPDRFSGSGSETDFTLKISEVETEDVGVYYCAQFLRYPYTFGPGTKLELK | 0.00018

Could you now look at the following binder, please?
[in] Need koff of h3.10C2.v1 Fab (Fab, V domains shown, also called 3.10C2-H1/3.27H7-L6) VH: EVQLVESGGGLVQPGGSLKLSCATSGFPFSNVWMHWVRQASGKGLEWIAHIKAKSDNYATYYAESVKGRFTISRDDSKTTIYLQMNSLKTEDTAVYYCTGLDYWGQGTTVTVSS VL: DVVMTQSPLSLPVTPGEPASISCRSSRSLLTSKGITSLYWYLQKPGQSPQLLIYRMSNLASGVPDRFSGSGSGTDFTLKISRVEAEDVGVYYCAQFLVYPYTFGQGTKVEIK , thanks.
[out] 0.00057
